Entry source: patent US7332476B2

system: Streptococcus pneumoniae Stpn_280-962; assay: MIC, broth microdilution (NCCLS); assay type: cell-based; design: unit not given beside the values; conditions: strain ID O; broth microdilution
attribute_measured: MIC, strain ID O

molecule	attribute_measured	reading
C=C[C@]12OC(=O)N(CCCCn3cnc(-c4cccnc4Cl)c3)[C@@H]1[C@@H](C)C(=O)[C@H](C)C[C@](C)(OC)[C@H](OC1O[C@H](C)C[C@H](N(C)C)[C@H]1O)[C@@H](C)C(=O)[C@@H](C)C(=O)O[C@@H]2CC (stereo partly drawn)	MIC, strain ID O	=0.05
C#C[C@]12OC(=O)N(CCCCn3cnc(-c4ccc(Cl)nc4)c3)[C@@H]1[C@@H](C)C(=O)[C@H](C)C[C@](C)(OC)[C@H](OC1O[C@H](C)C[C@H](N(C)C)[C@H]1O)[C@@H](C)C(=O)[C@@H](C)C(=O)O[C@@H]2CC (stereo partly drawn)	MIC, strain ID O	=0.05
C#C[C@]12OC(=O)N(CCCCn3cnc(-c4ccc(OC)nc4)c3)[C@@H]1[C@@H](C)C(=O)[C@H](C)C[C@](C)(OC)[C@H](OC1O[C@H](C)C[C@H](N(C)C)[C@H]1O)[C@@H](C)C(=O)[C@@H](C)C(=O)O[C@@H]2CC (stereo partly drawn)	MIC, strain ID O	=0.05
